# subject_of_test: Shiga toxin 2 (Escherichia coli O157:H7) (UniProt P09385+P09386)
# test_description: E. coli 0.157:H7 Shiga Toxin SOP - stx2 screening assay
# Type: functional
# Set-up: scale not given: direction of the effect not stated beside the values
# particulars: 30 µM
Listing of entries alongside the reported Percent Effect.
Dear colleague, please return just the value in %, with no unit written.

| molecule | readout_units | Percent Effect |
| --- | --- | --- |
| Cc1cn(-c2ccccc2)nc1NS(=O)(=O)c1cccc(C(=O)O)c1 | % | -5.83 |
| CCc1nc(NCC(=O)N2CCOCC2)c2c(n1)c(C)nn2CC | % | -15.5 |

Kindly review the next molecule as well.
Problem: Param readout = Percent Effect; param system = Shiga toxin 2 (Escherichia coli O157:H7) (UniProt P09385+P09386); param query = CS(=O)(=O)NC1CCc2c(ccc(=O)n2CC2CC2)C1 (stereo not drawn) ; response: value
Result: -5.71

---

# subject_of_test: Aspartate--tRNA(Asp/Asn) ligase (Mycobacterium tuberculosis (strain ATCC 25618 / H37Rv))
# test_description: Assay for Asp RNA synthetase-1 from Mycobacterium tuberculosis
# Assay type: functional
# Parameters: scale not given: direction of the effect not stated beside the values
# particulars: 30 µM
Listing of entries alongside the reported Percent Effect.
Dear colleague, please return just the value in %, with no unit written.

As a guide, the following entries are already answered.
| compound | reported_property | readout_units | observed_result |
| --- | --- | --- | --- |
| Cc1ccc(C(=O)N2CCO[C@H]3[C@@H](OCc4ccccn4)CC[C@@H]32)o1 | Percent Effect | % | 6.63 |
| CCn1cnnc1CNC(=O)NC(C)C(C)C (configuration not stated) | Percent Effect | % | -2.43 |
| COc1cc(N2C[C@@H]3COC[C@]3(COc3ccc(C#N)cn3)C2)ncn1 | Percent Effect | % | -1.45 |

Problem: Param readout = Percent Effect; param system = Aspartate--tRNA(Asp/Asn) ligase (Mycobacterium tuberculosis (strain ATCC 25618 / H37Rv)); param query = O=C(Cc1ccccc1)N1CCC2(CC(=O)N(c3cccc(F)c3)C2)C1 (configuration not stated) ; response: value; note: in the data most compounds retested in dose-response had high values
Result: -1.85

Problem: Param readout = Percent Effect; param system = Aspartate--tRNA(Asp/Asn) ligase (Mycobacterium tuberculosis (strain ATCC 25618 / H37Rv)); param query = CS(=O)(=O)N1CCN(CC(O)COc2ccc(F)cc2)CC1 (configuration not stated) ; response: value; note: in the data most compounds retested in dose-response had high values
Result: 1.99

Problem: Param readout = Percent Effect; param system = Aspartate--tRNA(Asp/Asn) ligase (Mycobacterium tuberculosis (strain ATCC 25618 / H37Rv)); param query = COc1cccc2c1OCC(CNC(=O)CNC(N)=O)C2 (configuration not stated) ; response: value; note: in the data most compounds retested in dose-response had high values
Result: 4.22

Problem: Param readout = Percent Effect; param system = Aspartate--tRNA(Asp/Asn) ligase (Mycobacterium tuberculosis (strain ATCC 25618 / H37Rv)); param query = CN(Cc1cn2ccccc2c1C#N)C1CCCN(c2cccnn2)C1 (configuration not stated) ; response: value; note: in the data most compounds retested in dose-response had high values
Result: 0.694

Problem: Param readout = Percent Effect; param system = Aspartate--tRNA(Asp/Asn) ligase (Mycobacterium tuberculosis (strain ATCC 25618 / H37Rv)); param query = CCn1c(C)nnc1CN(C)C1CCN(CCn2cccn2)C1 (configuration not stated) ; response: value; note: in the data most compounds retested in dose-response had high values
Result: 1.41

---

# subject_of_test: Shiga toxin 2 (Escherichia coli O157:H7) (UniProt P09385+P09386)
# test_description: E. coli 0.157:H7 Shiga Toxin SOP - stx2 screening assay
# Type: functional
# Design: scale not given: direction of the effect not stated beside the values
# particulars: 30 µM
reported_property: Percent Effect (%)
Dear colleague, please return just the value in %, with no unit written.

As a guide, the following entries are already answered.
| molecule | subject_of_test | readout_units | Percent Effect |
| --- | --- | --- | --- |
| O=C(CCN1CCCN(c2nccs2)CC1)Nc1ccccc1 | Shiga toxin 2 (Escherichia coli O157:H7) (UniProt P09385+P09386) | % | -52.2 |
| Cc1nnc2n1CCN(Cc1csc(-c3ccc(F)cc3)n1)C2 | Shiga toxin 2 (Escherichia coli O157:H7) (UniProt P09385+P09386) | % | 3.01 |
| CCc1noc(C(C)N2CCN(Cc3noc(C)n3)CC2)n1 (stereo unspecified) | Shiga toxin 2 (Escherichia coli O157:H7) (UniProt P09385+P09386) | % | -10.9 |

Problem: Param readout = Percent Effect; param system = Shiga toxin 2 (Escherichia coli O157:H7) (UniProt P09385+P09386); param query = CCc1nc(C2CCCN2CC(=O)Nc2sc(C)c(C)c2C)no1 (stereo unspecified) ; response: value
Result: 8.78

Problem: Param readout = Percent Effect; param system = Shiga toxin 2 (Escherichia coli O157:H7) (UniProt P09385+P09386); param query = c1ccc(OC[C@]23COC[C@H]2CN(c2ncccn2)C3)nc1 ; response: value
Result: -23.2

Problem: Param readout = Percent Effect; param system = Shiga toxin 2 (Escherichia coli O157:H7) (UniProt P09385+P09386); param query = COc1ccc(CCC(=O)NC2CCC(O)CC2)cc1OC (stereo unspecified) ; response: value
Result: 33

Problem: Param readout = Percent Effect; param system = Shiga toxin 2 (Escherichia coli O157:H7) (UniProt P09385+P09386); param query = Cn1ccnc1CC1CCCN(C(=O)Nc2cccn(C)c2=O)C1 (stereo unspecified) ; response: value
Result: -3.01

Problem: Param readout = Percent Effect; param system = Shiga toxin 2 (Escherichia coli O157:H7) (UniProt P09385+P09386); param query = Cc1ccc(CN2CC[C@H]3C[C@@H](c4nc(C5CC5)cs4)O[C@@H]3C2)o1 ; response: value
Result: -16.4

Problem: Param readout = Percent Effect; param system = Shiga toxin 2 (Escherichia coli O157:H7) (UniProt P09385+P09386); param query = C[C@@H]1C(=O)NC[C@H]2CN(Cc3ccsc3)C[C@H]21 ; response: value
Result: -20.9

Problem: Param readout = Percent Effect; param system = Shiga toxin 2 (Escherichia coli O157:H7) (UniProt P09385+P09386); param query = COc1ccc(NC(=O)c2ccc[nH]2)c(N2CCN(C(C)=O)CC2)n1 ; response: value
Result: 0.954

Problem: Param readout = Percent Effect; param system = Shiga toxin 2 (Escherichia coli O157:H7) (UniProt P09385+P09386); param query = CCn1cnnc1C1CCN(C(=O)c2ccccc2OC)CC1 ; response: value
Result: 14.1

Problem: Param readout = Percent Effect; param system = Shiga toxin 2 (Escherichia coli O157:H7) (UniProt P09385+P09386); param query = CC(C)c1nc(C(=O)N2CCOCC2CC(=O)c2ccco2)c[nH]1 (stereo unspecified) ; response: value
Result: -1.83

Problem: Param readout = Percent Effect; param system = Shiga toxin 2 (Escherichia coli O157:H7) (UniProt P09385+P09386); param query = Cc1cc(C)c2c(c1)C1(CC(=O)Nc3c1cnn3C(C)C)C(=O)N2 (stereo unspecified) ; response: value
Result: 1.39

---

# subject_of_test: Aspartate--tRNA(Asp/Asn) ligase (Mycobacterium tuberculosis (strain ATCC 25618 / H37Rv)) (UniProt P9WFW3)
# Sequence (P9WFW3 whole entry): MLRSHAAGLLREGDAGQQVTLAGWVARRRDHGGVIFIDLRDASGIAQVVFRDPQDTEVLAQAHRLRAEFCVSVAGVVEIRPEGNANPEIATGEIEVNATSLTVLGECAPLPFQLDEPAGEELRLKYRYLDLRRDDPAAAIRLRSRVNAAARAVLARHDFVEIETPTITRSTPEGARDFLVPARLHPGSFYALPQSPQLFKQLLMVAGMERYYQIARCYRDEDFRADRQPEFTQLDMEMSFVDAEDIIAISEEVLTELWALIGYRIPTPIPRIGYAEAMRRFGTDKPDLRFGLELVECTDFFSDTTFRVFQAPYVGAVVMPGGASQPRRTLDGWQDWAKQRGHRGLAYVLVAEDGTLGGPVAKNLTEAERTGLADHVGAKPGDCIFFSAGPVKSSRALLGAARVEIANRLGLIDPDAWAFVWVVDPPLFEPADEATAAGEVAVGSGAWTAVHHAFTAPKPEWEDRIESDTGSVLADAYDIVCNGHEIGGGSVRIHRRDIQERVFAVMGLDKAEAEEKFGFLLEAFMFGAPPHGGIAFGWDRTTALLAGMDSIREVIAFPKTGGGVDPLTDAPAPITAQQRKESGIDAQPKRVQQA
# test_description: Assay for Asp RNA synthetase-1 from Mycobacterium tuberculosis
# Format: functional
# Set-up: scale not given: direction of the effect not stated beside the values
# particulars: 30 µM
Listing of entries alongside the reported Percent Effect.
Dear colleague, please return just the value in %, with no unit written.

As a guide, the following entries are already answered.
| compound | reported_property | readout_units | observed_result |
| --- | --- | --- | --- |
| Cc1ccc(Cl)cc1N1CCC(CNC(=O)CC(F)(F)F)C1 (configuration not stated) | Percent Effect | % | -1.19 |
| CC(=O)Nc1nc(C(=O)NCc2ccc(N3CCCCCC3)nc2)cs1 | Percent Effect | % | 6.56 |
| Cc1ccc(-c2nc(CCNC(=O)CCN3CCOC3=O)co2)cc1 | Percent Effect | % | -1.93 |
| Cc1cc(C)cc(NC(=O)CN2CCCC(n3cncn3)C2)c1 (configuration not stated) | Percent Effect | % | -0.903 |
| NC(=O)Nc1cccc(Oc2ccccn2)c1 | Percent Effect | % | -2.58 |

Problem: # input compound: CN(C)C(=O)C1CN(Cc2c[nH]cn2)CCN(C2CCOCC2)C1 (configuration not stated) ; wanted: its Percent Effect
Result: 0.313

Problem: # input compound: Cc1cc(N2CCN(C(=O)c3cc(Cl)c[nH]3)CC2)nc(N)n1 ; wanted: its Percent Effect
Result: 3.4

Problem: # input compound: CCc1cc(C(=O)N2CCCC2c2nc(C)c(F)c(O)n2)on1 (configuration not stated) ; wanted: its Percent Effect
Result: 2.22

Problem: # input compound: CCN(Cc1ccco1)C(=O)c1cc(OC)c2c(c1)OCCO2 ; wanted: its Percent Effect
Result: 3.71

Problem: # input compound: O=C(NCC(=O)N1CCc2ccccc2C1)c1ccoc1 ; wanted: its Percent Effect
Result: 1.62

Problem: # input compound: COCc1nc(C(=O)N2CCCC2c2ccccc2C)cs1 (configuration not stated) ; wanted: its Percent Effect
Result: -0.975
